# TESTED ON: recombinant human tissue transglutaminase (Homo sapiens)
# Construct: made in house
# Sequence (P21980 1-687): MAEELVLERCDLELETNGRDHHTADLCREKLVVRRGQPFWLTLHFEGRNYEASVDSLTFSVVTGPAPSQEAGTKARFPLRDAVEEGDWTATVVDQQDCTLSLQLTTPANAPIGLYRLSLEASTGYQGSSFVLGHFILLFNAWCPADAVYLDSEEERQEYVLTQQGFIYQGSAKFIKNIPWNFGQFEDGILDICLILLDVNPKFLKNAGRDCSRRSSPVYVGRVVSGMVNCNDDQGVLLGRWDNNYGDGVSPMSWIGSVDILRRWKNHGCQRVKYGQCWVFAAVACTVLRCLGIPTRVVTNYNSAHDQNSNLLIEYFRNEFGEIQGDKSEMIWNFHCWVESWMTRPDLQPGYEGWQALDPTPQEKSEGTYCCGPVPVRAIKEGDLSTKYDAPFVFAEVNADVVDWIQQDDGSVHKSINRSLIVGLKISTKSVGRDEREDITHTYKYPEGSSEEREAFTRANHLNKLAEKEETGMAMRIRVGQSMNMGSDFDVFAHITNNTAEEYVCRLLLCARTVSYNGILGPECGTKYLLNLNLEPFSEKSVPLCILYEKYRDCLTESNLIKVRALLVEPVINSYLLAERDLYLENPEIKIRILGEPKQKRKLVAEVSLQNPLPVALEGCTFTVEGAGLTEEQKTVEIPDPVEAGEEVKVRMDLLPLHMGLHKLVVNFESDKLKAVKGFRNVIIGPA
# METHOD SUMMARY: tTGase assay with recombinant human tissue transglutaminase
# Format: biochemical
# PROTOCOL CONDITIONS: dihydroisoxazole inhibitors of human tTGase; irreversible inactivation
Rule: Inhibition Rate Constants (kinh) of 0.3 min⁻¹ or more gives true; anything lower gives false.

O=C(C[C@H](NC(=O)OCc1ccccc1)C(=O)NCC1CC(Br)=NO1)NCc1ccccc1 (stereo partly drawn) : true
O=C(N[C@@H](Cc1ccc(O)cc1)C(=O)NCC1CC(Br)=NO1)OCc1ccc2ccccc2c1 (stereo partly drawn) : false
O=C(N[C@@H](Cc1ccc(O)cc1)C(=O)NCC1CC(Br)=NO1)OCc1ccncc1 (stereo partly drawn) : false
CC(=O)N[C@@H](Cc1ccccc1)C(=O)NCC1CC(Br)=NO1 (stereo partly drawn) : true
CN(CC1CC(Br)=NO1)C(=O)[C@H](Cc1ccccc1)NC(=O)OCc1ccccc1 (stereo partly drawn) : false

q: Can O=C(N[C@@H](Cc1ccc(O)cc1)C(=O)NCC1CC(Br)=NO1)OCCc1ccccc1 (stereo partly drawn) be said to have Inhibition Rate Constants (kinh) at or above 0.3 min⁻¹?
a: false

q: Can O=C(N[C@@H](Cc1ccc(O)cc1)C(=O)NCC1CC(Br)=NO1)OCc1cccnc1 (stereo partly drawn) be said to have Inhibition Rate Constants (kinh) at or above 0.3 min⁻¹?
a: false

q: Can O=C(N[C@@H](Cc1ccc(O)cc1)C(=O)NCC1CC(Br)=NO1)OCC1=Cc2ccccc2S1(=O)=O (stereo partly drawn) be said to have Inhibition Rate Constants (kinh) at or above 0.3 min⁻¹?
a: true

q: Can O=C(N[C@@H](Cc1ccc(F)cc1)C(=O)NCC1CC(Br)=NO1)OCc1ccccc1 (stereo partly drawn) be said to have Inhibition Rate Constants (kinh) at or above 0.3 min⁻¹?
a: true

q: Can O=C(N[C@@H](Cc1ccc(O)cc1)C(=O)NCC1CC(Br)=NO1)OCc1ccccc1 (stereo partly drawn) be said to have Inhibition Rate Constants (kinh) at or above 0.3 min⁻¹?
a: true

q: Can O=C(N[C@@H](Cc1c[nH]c2ccc(O)cc12)C(=O)NCC1CC(Br)=NO1)OCc1ccccc1 (stereo partly drawn) be said to have Inhibition Rate Constants (kinh) at or above 0.3 min⁻¹?
a: true

Ref: patent US20080233102A1
